Test system: ragweed (common ragweed, Ambrosia elatior)
procedure details: Test A preemergence, ragweed
Format: in vivo
run parameters: 125 g ai/ha, 0 to 100 scale, 0 is no effect, 100 is complete control
test readout: Ragweed plant response rating
One number for each entry.

Would you be so kind as to report Ragweed plant response rating for each listed record?
1. Cc1ccc2c([C@@H](Nc3ncc(C(F)(F)F)c(N)n3)C3CC3)coc2c1
2. Cc1ccc2c([C@H](Nc3ncc(C(F)(F)F)c(N)n3)C3CC3)coc2c1
3. CC(Nc1nc(N)c(C(F)(F)F)c(C(F)(F)F)n1)c1coc2ccccc12 (stereo not shown)
4. CC(COc1cccc(F)c1)Nc1ncc(C(F)(F)F)c(N)n1 (stereo not shown)
5. Cc1nc(NC(C)c2cc3ccccc3s2)nc(N)c1C(F)(F)F (stereo not shown)
6. CC(Nc1ncc(S(C)(=O)=O)c(N)n1)c1cc2ccccc2s1 (stereo not shown)
7. Cc1cccc2oc(C(C)Nc3ncc(C(F)(F)F)c(N)n3)cc12 (stereo not shown)
8. CC(Nc1ncc(C(F)(F)F)c(N)n1)c1cc2ccc(Cl)cc2s1 (racemic)

[0, 50, 0, 0, 100, 100, 70, 20]

Would you be so kind as to report Ragweed plant response rating for each listed record?
1. C[C@@H](Nc1nc(N)c(C(F)(F)F)c(C(F)F)n1)c1cc2ccccc2s1
2. CC(COc1cc(F)c(F)c(F)c1)Nc1ncc(C(F)(F)F)c(N)n1 (stereo not shown)

1. 90
2. 0

Hey, just so you know, these numbers are from patent US20220119354A1.
